Reported pERK EC50 (nM) values are given for each entry in this list.
# experimentalSystem: T1, human MIC-1 receptor (hGFRAL, GDNF family receptor alpha like) (human, UniProt Q6UXV0 19-394)
# T1 sequence (looked up): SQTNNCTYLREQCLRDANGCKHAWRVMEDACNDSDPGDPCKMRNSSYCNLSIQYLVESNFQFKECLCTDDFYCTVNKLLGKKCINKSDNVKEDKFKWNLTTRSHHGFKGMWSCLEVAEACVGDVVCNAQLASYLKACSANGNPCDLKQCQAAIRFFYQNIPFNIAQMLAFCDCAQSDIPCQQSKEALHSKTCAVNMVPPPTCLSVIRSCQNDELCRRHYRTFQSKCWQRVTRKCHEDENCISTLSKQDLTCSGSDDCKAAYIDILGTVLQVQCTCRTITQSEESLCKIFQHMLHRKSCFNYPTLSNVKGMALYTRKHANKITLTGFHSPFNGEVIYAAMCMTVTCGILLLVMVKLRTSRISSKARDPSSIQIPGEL
# methodDescription: cell-based or functional assay
Give the value, in units of nM, as a plain number.

- binder: "MIC-1(R2A, N3E, A47E) (ligand) AAEGDHCPLGPGRCCRLHTVRASLEDLGWADWVLSPREVQVTMCIGECPSQFRAANMHAQIKTSLHRLKPDTVPAPCCVPASYNPMVLIQKTDTGVSLQTYDDLLAKDCHCI"
  valueMeasured: 0.4
- binder: "(SEPATSGSETPG)2-MIC-1-Δ1-3(M57L, M86L) (ligand) SEPATSGSETPGSEPATSGSETPGGDHCPLGPGRCCRLHTVRASLEDLGWADWVLSPREVQVTMCIGACPSQFRAANLHAQIKTSLHRLKPDTVPAPCCVPASYNPLVLIQKTDTGVSLQTYDDLLAKDCHCI"
  valueMeasured: 0.4
- binder: "(SEPATSGSETPG)2-MIC-1-Δ1-3(M57L) (ligand) SEPATSGSETPGSEPATSGSETPGGDHCPLGPGRCCRLHTVRASLEDLGWADWVLSPREVQVTMCIGACPSQFRAANLHAQIKTSLHRLKPDTVPAPCCVPASYNPMVLIQKTDTGVSLQTYDDLLAKDCHCI"
  valueMeasured: 0.6
- binder: "SPAGSPTSTEEGTSESATPESGPG-MIC-1 (SEQ ID NO: 1) (ligand) SPAGSPTSTEEGTSESATPESGPGARNGDHCPLGPGRCCRLHTVRASLEDLGWADWVLSPREVQVTMCIGACPSQFRAANMHAQIKTSLHRLKPDTVPAPCCVPASYNPMVLIQKTDTGVSLQTYDDLLAKDCHCI"
  valueMeasured: 0.4

Turning to the following binder.
Which pERK EC50 (nM) is reported for this binder? (SEPATSGSETPG)2-MIC-1-Δ1-3(M86L) (ligand) SEPATSGSETPGSEPATSGSETPGGDHCPLGPGRCCRLHTVRASLEDLGWADWVLSPREVQVTMCIGACPSQFRAANMHAQIKTSLHRLKPDTVPAPCCVPASYNPLVLIQKTDTGVSLQTYDDLLAKDCHCI 0.4
